target: glucocerebrosidase (Gcase) (Homo sapiens, UniProt P04062); assay: Glucocerebrosidase (Gcase) activation assay, 4-methylumbelliferyl-beta-D-glucopyranoside substrate, with saposin C; format: biochemical; settings: 1 μM test compound; read-out: Percent Gcase Activation 1 μM Test Compound
Sequence (P04062 40-536): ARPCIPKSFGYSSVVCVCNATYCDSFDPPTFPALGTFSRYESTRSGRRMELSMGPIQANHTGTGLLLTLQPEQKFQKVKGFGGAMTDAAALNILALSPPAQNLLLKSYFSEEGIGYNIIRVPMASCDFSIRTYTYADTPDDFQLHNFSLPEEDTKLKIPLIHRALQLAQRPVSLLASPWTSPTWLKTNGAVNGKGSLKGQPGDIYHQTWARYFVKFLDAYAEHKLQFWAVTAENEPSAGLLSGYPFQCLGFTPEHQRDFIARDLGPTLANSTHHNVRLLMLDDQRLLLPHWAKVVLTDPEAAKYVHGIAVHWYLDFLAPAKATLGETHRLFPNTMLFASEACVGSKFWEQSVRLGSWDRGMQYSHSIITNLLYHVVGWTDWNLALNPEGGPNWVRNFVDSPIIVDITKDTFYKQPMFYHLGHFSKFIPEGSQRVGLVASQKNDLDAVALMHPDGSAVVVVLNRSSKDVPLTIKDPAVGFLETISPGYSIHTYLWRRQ
Reported endpoint: activation at 1 µM

Cc1cc(-c2cccc(C#N)c2)nc2c(C(=O)N[C@@H](C)C3CC3)ncn12: > 60%

Hey, quick one: what's activation at 1 µM for each of these?
1. Cc1cc(-c2ccnn2C)nc2c(C(=O)NC(C)(C)C3CC3)ncn12
2. Cc1cc(-c2cnccn2)nc2c(C(=O)NC(C)(C)C3CC3)ncn12
3. Cc1cc(C2CCCOC2)nc2c(C(=O)NC(C)(C)C3CC3)ncn12 (stereo not shown)
4. C#Cc1ccc(NC(=O)c2ncn3c(C4CCCC4)cc(C)nc23)cc1
5. CCNc1cc(C)n2cnc(C(=O)NC(c3ccc(F)cc3)C(F)(F)F)c2n1 (stereo not shown)
6. Cc1cc(C)n2cnc(C(=O)N[C@@H](C)C3CC4(CCC4)C3)c2n1

Response given:
["< 30%", "30 to 60%", "< 30%", "30 to 60%", "> 60%", "> 60%"]

Hi there! I need activation at 1 µM for each item below, if you can.
1. CCOc1cccc(-c2cc(C)n3cnc(C(=O)NC(C)(C)C4CC4)c3n2)n1
2. COc1cccc(-c2cc(C)n3cnc(C(=O)NC(C4CC4)C4CC4)c3n2)c1
3. COc1cc(C)n2cnc(C(=O)NC(c3ccc(F)cc3)C(F)(F)F)c2n1 (stereo not shown)
4. CCOc1cccc(-c2cc(C)n3cnc(C(=O)NC(C)C(F)(F)F)c3n2)c1 (stereo not shown)
5. Cc1cc(-n2ccnc2)nc2c(C(=O)NC(C)(C)C3CC3)ncn12

Response given:
30 to 60%
> 60%
> 60%
> 60%
< 30%

====

Assignment: determine reported activation at 0.1 µM for the given compounds.
target: glucocerebrosidase (Gcase) (Homo sapiens, UniProt P04062); experiment: Glucocerebrosidase (Gcase) activation assay, 4-methylumbelliferyl-beta-D-glucopyranoside substrate, with saposin C; format: biochemical; settings: test compound at 0.1 μM; read-out: Percent Gcase Activation, 0.1 μM Test Compound

Here's what some known entries look like.
Cc1cc(C#N)c(-c2cc(C)n3cnc(C(=O)N[C@H](C4CC4)C(F)(F)F)c3n2)o1 [IV-93]: > 20%
COc1c(F)cccc1-c1cc(C)n2cnc(C(=O)NC(C)C(F)(F)F)c2n1 (centres unmarked) [IV-64]: < 10%
Cc1cc(-c2ccns2)nc2c(C(=O)N[C@H](C3CC3)C(F)(F)F)ncn12 [IV-7]: 10 to 20%
Cc1cc(-c2ccc(F)cc2)nc2c(C(=O)N[C@@H](C3CC3)C(F)(F)F)ncn12 [IV-46]: > 20%
Cc1cc(C#N)c(-c2cc(C)n3cnc(C(=O)N[C@@H](C4CC4)C(F)(F)F)c3n2)o1 [IV-94]: > 20%

Hey, can you go through the list below and give me activation at 0.1 µM for every item?
1. Cc1cc(-c2cccc(-c3ncco3)c2)nc2c(C(=O)NC(C3CC3)C(F)(F)F)ncn12 (centres unmarked) [IV-60]
2. Cc1cc(-c2ccc(F)cc2)nc2c(C(=O)NC(C3CC3)C(F)(F)F)ncn12 (centres unmarked) [IV-44]
3. COc1c(C#N)cccc1-c1cc(C)n2cnc(C(=O)N[C@@H](C)C3CC3)c2n1 [IV-65]

Response given:
["> 20%", "> 20%", "< 10%"]
